These data points were gathered from paper PMC4835091.

# STUDY SYSTEM: the molecule itself
# PROCEDURE TEXT: sedimentation of FtsZ polymers; FtsZ or CTV mutant 5 μM alone in 50 mM K-MOPS pH 6.5, 50 mM KCl, 2.5 mM MgCl2, 3 μM BSA, 1 mM GTP, room temperature; TLA100.2, 80,000 rpm, 10 min; percent of FtsZ in the pellet by SDS-PAGE
OBSERVATION TYPE: binding result

protein="FtsZ(RQAR) (purified) (natural protein, E. coli, UniProt P0A9A6 1-383, looked up, FtsZ of E. coli with the native CTV KQAD replaced by RQAR (net-positive); pAM3, pET-21b(+); also called net-positive CTV mutant; source: E. coli C41(DE3), purified (25% saturated ammonium sulfate cut)) MFEPMELTNDAVIKVIGVGGGGGNAVEHMVRERIEGVEFFAVNTDAQALRKTAVGQTIQIGSGITKGLGAGANPEVGRNAADEDRDALRAALEGADMVFIAAGMGGGTGTGAAPVVAEVAKDLGILTVAVVTKPFNFEGKKRMAFAEQGITELSKHVDSLITIPNDKLLKVLGRGISLLDAFGAANDVLKGAVQGIAELITRPGLMNVDFADVRTVMSEMGYAMMGSGVASGEDRAEEAAEMAISSPLLEDIDLSGARGVLVNITAGFDLRLDEFETVGNTIRAFASDNATVVIGTSLDPDMNDELRVTVVATGIGMDKRPEITLVTNKQVQQPVMDRYQQHGMAPLTQEQKPVAKVVNDNAPQTAKEPDYLDIPAFLRRQAR" value_observed=binds
protein="FtsZ(1-379) (purified) (domain or fragment, E. coli, UniProt P0A9A6 1-379, looked up, also called FtsZ lacking the CTV residues; FtsZ without the CTV region; source: E. coli C41(DE3), purified (25% saturated ammonium sulfate cut)) MFEPMELTNDAVIKVIGVGGGGGNAVEHMVRERIEGVEFFAVNTDAQALRKTAVGQTIQIGSGITKGLGAGANPEVGRNAADEDRDALRAALEGADMVFIAAGMGGGTGTGAAPVVAEVAKDLGILTVAVVTKPFNFEGKKRMAFAEQGITELSKHVDSLITIPNDKLLKVLGRGISLLDAFGAANDVLKGAVQGIAELITRPGLMNVDFADVRTVMSEMGYAMMGSGVASGEDRAEEAAEMAISSPLLEDIDLSGARGVLVNITAGFDLRLDEFETVGNTIRAFASDNATVVIGTSLDPDMNDELRVTVVATGIGMDKRPEITLVTNKQVQQPVMDRYQQHGMAPLTQEQKPVAKVVNDNAPQTAKEPDYLDIPAFLR" value_observed=binds
